Assignment: determine reported T/C for the given molecules.
Test system: L1210 leukemia ip in BDF1 mice, survival T/C
procedure.summary: NCI In Vivo Anticancer Drug Screen. Data for tumor model L1210 Leukemia (intraperitoneal) in B6D2F1 (BDF1) mice
run.parameters: endpoint: mean survival time; dose: 100.0 mg/kg/injection; schedule: Q04DX003 (ip); vehicle: saline; higher = longer survival
Toxic doses and inconclusive results are not listed.

Query string: Report T/C under test system L1210 leukemia ip in BDF1 mice, survival T/C for COc1cc(OC)c(C(=O)c2ccccc2[N+](=O)[O-])c(OC)c1 .
Result string: 99 % of control

Query string: Report T/C under test system L1210 leukemia ip in BDF1 mice, survival T/C for O=c1cc(CO)[nH]cc1O .
Result string: 106 % of control

Query string: Report T/C under test system L1210 leukemia ip in BDF1 mice, survival T/C for Oc1c(Br)cc(Br)cc1C=Nc1ccccc1.Oc1c(Br)cc(Br)cc1C=Nc1ccccc1.[Co] .
Result string: 92 % of control

Query string: Report T/C under test system L1210 leukemia ip in BDF1 mice, survival T/C for Nc1c(S(=O)(=O)O)cc(Br)c2c1C(=O)c1ccccc1C2=O .
Result string: 96 % of control

Query string: Report T/C under test system L1210 leukemia ip in BDF1 mice, survival T/C for CCC(C#N)=C1CCCCC1 .
Result string: 100 % of control
